Origin of values: ChEMBL document CHEMBL6134857

Target: GABA-A receptor; alpha-1/beta-3/gamma-2 (Homo sapiens, UniProt P14867+P18507+P28472)
Sequence (P14867 whole entry): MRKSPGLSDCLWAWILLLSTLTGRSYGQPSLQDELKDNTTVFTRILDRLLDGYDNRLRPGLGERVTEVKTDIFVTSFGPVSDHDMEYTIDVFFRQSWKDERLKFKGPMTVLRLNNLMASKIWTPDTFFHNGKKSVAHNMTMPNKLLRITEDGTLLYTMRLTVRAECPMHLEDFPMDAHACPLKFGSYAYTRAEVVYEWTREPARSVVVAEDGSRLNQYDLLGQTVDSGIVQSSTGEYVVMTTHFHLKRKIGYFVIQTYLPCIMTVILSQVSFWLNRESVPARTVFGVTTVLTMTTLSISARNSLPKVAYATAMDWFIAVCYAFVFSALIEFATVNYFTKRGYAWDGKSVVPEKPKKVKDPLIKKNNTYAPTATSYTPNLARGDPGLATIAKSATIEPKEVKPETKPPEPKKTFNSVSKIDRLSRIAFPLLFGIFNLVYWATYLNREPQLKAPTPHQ
Sequence (P18507 whole entry): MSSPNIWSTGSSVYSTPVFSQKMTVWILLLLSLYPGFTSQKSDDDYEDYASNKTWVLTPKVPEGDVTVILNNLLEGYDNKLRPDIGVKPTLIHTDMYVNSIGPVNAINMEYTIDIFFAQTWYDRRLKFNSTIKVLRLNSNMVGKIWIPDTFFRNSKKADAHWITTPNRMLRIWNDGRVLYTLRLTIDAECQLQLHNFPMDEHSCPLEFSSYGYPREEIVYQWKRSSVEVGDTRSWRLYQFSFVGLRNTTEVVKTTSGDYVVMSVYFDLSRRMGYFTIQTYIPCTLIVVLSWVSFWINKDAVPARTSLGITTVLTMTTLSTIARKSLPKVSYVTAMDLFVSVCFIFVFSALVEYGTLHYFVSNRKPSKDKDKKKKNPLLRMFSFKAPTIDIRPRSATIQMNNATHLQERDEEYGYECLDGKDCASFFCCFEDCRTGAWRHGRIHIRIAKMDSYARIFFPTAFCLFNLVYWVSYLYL
Sequence (P28472 whole entry): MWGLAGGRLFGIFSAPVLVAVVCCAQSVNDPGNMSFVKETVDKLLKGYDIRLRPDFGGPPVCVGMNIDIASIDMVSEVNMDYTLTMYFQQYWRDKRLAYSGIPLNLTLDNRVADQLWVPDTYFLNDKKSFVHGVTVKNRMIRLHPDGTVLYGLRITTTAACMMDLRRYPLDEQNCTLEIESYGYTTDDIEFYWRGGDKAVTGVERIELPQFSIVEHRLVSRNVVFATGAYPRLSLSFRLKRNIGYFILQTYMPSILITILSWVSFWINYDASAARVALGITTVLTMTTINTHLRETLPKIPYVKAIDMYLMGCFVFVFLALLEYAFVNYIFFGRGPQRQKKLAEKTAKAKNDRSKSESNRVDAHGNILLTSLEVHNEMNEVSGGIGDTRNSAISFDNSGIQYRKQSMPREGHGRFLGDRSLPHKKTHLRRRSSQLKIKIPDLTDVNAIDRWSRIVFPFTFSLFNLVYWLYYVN
Assay: Mixed-type inhibition of R-mTFD-MPAB-induced [3H]muscimol binding to full length human N-terminal flag-tagged alpha1-beta3-C-terminal 1D4-tagged gamma2 GABAA receptor extracted from Tetracycline-resistant HEK293 cell membrane incubated for 30 mins
Type: cell membranes
RECORDED_METRIC: IC50 (µM)
Answers are plain numbers, in µM.

Consider the molecule Cc1ccc2c(c1)C1(CC2)C(=O)NC(=O)N(C)C1=O (stereo in doubt; 4h-2) and give its recorded IC50.
38

* * *

biological target: GABA-A receptor; alpha-1/beta-3/gamma-2 (Homo sapiens) (UniProt P14867+P18507+P28472); assay: Inhibition of R-mTFD-MPAB-induced [3H]muscimol binding to full length human N-terminal flag-tagged alpha1-beta3-C-terminal 1D4-tagged gamma2 GABAA receptor extracted from Tetracycline-resistant HEK293 cell membrane assessed as fold change at 300 uM incubated for 30 mins; format: cell membranes; conditions: filed as modulator
Would you please tag the item t when its fold change (FC) is 0.9 or above, and f when it is below?

- MOLECULE: "O=C1NC(=O)C2(CCCCc3ccccc32)C(=O)N1"
  SYSTEM: "GABA-A receptor; alpha-1/beta-3/gamma-2 (Homo sapiens) (UniProt P14867+P18507+P28472)"
  ASSIGNED_LABEL: "t"

Could you please find out whether CC(C)c1ccc2c(c1)C1(CC2)C(=O)NC(=O)N(C)C1=O (stereo in doubt; 5h-2) has fold change (FC) that meets 0.9 or exceeds it?
t

Could you please find out whether COc1ccc2c(c1)C1(CC2)C(=O)NC(=O)N(C)C1=O (stereo in doubt; 7h-1) has fold change (FC) that meets 0.9 or exceeds it?
t

Could you please find out whether O=C1NC(=S)NC(=O)C12CCc1ccccc12 has fold change (FC) that meets 0.9 or exceeds it?
f

Could you please find out whether CN1C(=O)NC(=O)C2(CCCCc3ccccc32)C1=O (stereo in doubt; 3h-1) has fold change (FC) that meets 0.9 or exceeds it?
t

Could you please find out whether CN1C(=O)NC(=O)[C@@]2(CCc3ccccc32)C1=O has fold change (FC) that meets 0.9 or exceeds it?
f

Could you please find out whether O=C1NC(=O)C2(CC(O)c3ccccc32)C(=O)N1 (stereo in doubt; 1t-1) has fold change (FC) that meets 0.9 or exceeds it?
t

Could you please find out whether CN1C(=O)NC(=O)C2(CCc3ccc(Br)cc32)C1=O (stereo in doubt; 6h-2) has fold change (FC) that meets 0.9 or exceeds it?
t

Could you please find out whether O=C1NC(=O)C2(CCCc3ccccc32)C(=O)N1 has fold change (FC) that meets 0.9 or exceeds it?
t

Could you please find out whether Cc1ccc2c(c1)C1(CC2)C(=O)NC(=S)NC1=O has fold change (FC) that meets 0.9 or exceeds it?
t

Could you please find out whether O=C1NC(=O)C2(CC(O)c3ccccc32)C(=O)N1 (stereo in doubt; 1t-2) has fold change (FC) that meets 0.9 or exceeds it?
f

Could you please find out whether CC1CC2(C(=O)NC(=O)NC2=O)c2ccccc21 (stereo in doubt; 11g-1) has fold change (FC) that meets 0.9 or exceeds it?
t

Could you please find out whether O=C1NC(=O)C2(CCc3ccccc32)C(=O)N1 has fold change (FC) that meets 0.9 or exceeds it?
f

Could you please find out whether N=C1NC(=O)C2(CCc3ccc(F)cc32)C(=O)N1 (stereo unspecified) has fold change (FC) that meets 0.9 or exceeds it?
f

Could you please find out whether N#CSC1CC2(C(=O)NC(=O)NC2=O)c2ccccc21 (stereo in doubt; 1y-1) has fold change (FC) that meets 0.9 or exceeds it?
f

Could you please find out whether CCN1C(=O)NC(=O)C2(CCc3ccccc32)C1=O (stereo in doubt; 1i-1) has fold change (FC) that meets 0.9 or exceeds it?
f

Could you please find out whether CC(C)c1ccc2c(c1)C1(CC2)C(=O)NC(=O)N(C)C1=O (stereo in doubt; 5h-1) has fold change (FC) that meets 0.9 or exceeds it?
f

Could you please find out whether CN1C(=O)NC(=O)[C@]2(CCc3ccccc32)C1=O has fold change (FC) that meets 0.9 or exceeds it?
f

* * *

target: GABA-A receptor; alpha-1/beta-3/gamma-2 (Homo sapiens) (UniProt P14867+P18507+P28472); experiment: Inhibition of R-mTFD-MPAB-induced [3H]muscimol binding to full length human N-terminal flag-tagged alpha1-beta3-C-terminal 1D4-tagged gamma2 GABAA receptor extracted from Tetracycline-resistant HEK293 cell membrane assessed as fold change at 300 uM incubated for 30 mins; type: cell membranes; conditions: filed as modulator
RECORDED_METRIC: fold change (FC)
Give bare numbers.

- COMPOUND: "CN1C(=O)N(C)C(=O)C2(CCc3ccccc32)C1=O"
  fold change (FC): 0.98

Give measured fold change (FC) for every item shown.
1. CC1CC2(C(=O)NC(=O)NC2=O)c2ccccc21 (stereo in doubt; 11g-2)
2. N=C1NC(=O)C2(CCc3ccc(Cl)cc32)C(=O)N1 (stereo not drawn)

[0.99, 0.53]

* * *

target: GABA-A receptor; alpha-1/beta-3/gamma-2 (Homo sapiens) (UniProt P14867+P18507+P28472); assay: Modulation of [3H]flunitrazepam binding to full length human N-terminal flag-tagged alpha1-beta3-C-terminal 1D4-tagged gamma2 GABAA receptor extracted from Tetracycline-resistant HEK293 cell membrane assessed as fold change in [3H]flunitrazepam binding at 300 uM incubated for 30 mins; assay type: cell membranes; conditions: filed as modulator
Class field: derived from fold change (FC); ranges Low = under 0.6, Medium = from 0.6 up to 0.7, High = 0.7 and over

- MOLECULE: "COc1ccc2c(c1)C1(CC2)C(=O)NC(=O)N(C)C1=O (stereo in doubt; 7h-1)"
  ASSIGNED_LABEL: "Low"
- MOLECULE: "O=C1NC(=O)C2(CCCCc3ccccc32)C(=O)N1"
  ASSIGNED_LABEL: "Low"
- MOLECULE: "O=C1NC(=O)C2(CCCc3ccccc32)C(=O)N1"
  ASSIGNED_LABEL: "Low"
- MOLECULE: "COc1ccc2c(c1)C1(CC2)C(=O)NC(=O)N(C)C1=O (stereo in doubt; 7h-2)"
  ASSIGNED_LABEL: "High"
- MOLECULE: "CN1C(=O)NC(=O)[C@]2(CCc3ccccc32)C1=O"
  ASSIGNED_LABEL: "Medium"

Class for Cc1ccc2c(c1)C1(CC2)C(=O)NC(=O)N(C)C1=O (stereo in doubt; 4h-1) ?
High

Class for CC(C)c1ccc2c(c1)C1(CC2)C(=O)NC(=O)N(C)C1=O (stereo in doubt; 5h-1) ?
High

Class for CN1C(=O)NC(=O)C2(CCc3ccc(Br)cc32)C1=O (stereo in doubt; 6h-1) ?
Medium

Class for CN1C(=O)NC(=O)[C@@]2(CCc3ccccc32)C1=O ?
Low
